- Tested on: K4 kissing-loop RNA reporter;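 note: bound reporter read as fluorescence of individual clusters on recovered sequencing chips by microscopy, with normalized cluster intensities fitted with a binding model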
- METHOD_SUMMARY: apparent KD of K4 kissing-loop reporter; higher = weaker reporter binding
- CONDITION_CONTEXT: Eterna round: R107; input ligand: tryptophan 2.4 mM
Outcome: Condition met for apparent KD of K4 kissing-loop reporter of at least 300 nM; Condition not met for anything lower.

Example entries begin here.
SEQ	CATEGORY
GUGCAGUGAUGUUGCACGAGGAAAGACGAUACCAGCCGUAAAUAAGGCCCUUGGCAGCGUGGGCUAGCAUAAAGCAUGCUAGUCU [Edbemavela]	Condition not met
AAGGGCUAGGCGGCCGCCACUGGUUGUGAACACAUACGAGCCAGUGAUGUUGGUAUUGUGUGCGGCAGGACCGGGCCUAGCCGAA [Exclusion - Tryptophan B (Freestyle 23)]	Condition met
UAUUCUAAUGCGGCCGCCACUGGAAGUGAUGUUUCCUCUGGCUAUCAUUUCGGACGGUAUUGUCCCAGGACCGGGCAUCCCUCUC [theeternabot_exclusion_KL_Trp_B_4]	Condition not met
AAACAUUGGUCGGAUACCAGUUAGACCGAUAGGUCAAAACUGGAGUGAUGUUCCUAAAAUAACCCUUGGCAGCCGACCGAUGAAA [MAT - Same State Theophlline B - Mod of Eli - D5]	Condition met
CUUAAGGAGUGUCGUGCCGGACACUGGGAAGGAGCGCAAUUCUUUGCAGGUAGGUCGCCCAGUGAUGUUGGGUCUCGCUGUCGAA [KL-XArg-A20]	Condition not met

Evaluate AAUUAAUACAGAAGGAGCGUGUAUUUAACUACAAUUAUCUUAGCGAGUGAUGUUCGUUUUACACAGGUAGGUCGCUGUAUAUUUA [JR_ExcArginiB_Sub010] : apparent KD of K4 kissing-loop reporter at minimum 300 nM?
Condition not met

Evaluate ACGUGUCACUGAAGGAGCGUCUACCGAAUACGAGUGAUGUUCGUACACCACUGAUAUAGUGGACAGGUAGGUCGCAGUGAUACGU [Arg B Ex t3] : apparent KD of K4 kissing-loop reporter at minimum 300 nM?
Condition not met

Evaluate AAAAUUGCGGUCGAAAGAACUUCUUGCAUACGAGGACCGGUACGGCCGCCACUCGAGUCAAGUGAUGUUUGAUAAUCUAUUAUUA [JR_ExcTryptoA_Sub012] : apparent KD of K4 kissing-loop reporter at minimum 300 nM?
Condition not met

Evaluate AAAAUUAAGGCCGAAUUAACUUCUUGCAUACGAGGACCGGUACGGCCGCCACUCGAGUCAAGUGAUGUUUGACAAUCUAUUAUUA [JR_ExcTryptoA_Sub010] : apparent KD of K4 kissing-loop reporter at minimum 300 nM?
Condition not met

Evaluate GCGUCACGUCGGGAUACCAGAGAAAUGGCAUUAGCCAAUGACGAGUGAUGUUCGUAGGCGCUCCCUUGGCAGCCCACCGGGAGGA [theeternabot_sameState_KL_Theo_B_21] : apparent KD of K4 kissing-loop reporter at minimum 300 nM?
Condition not met

Evaluate GGUAGCAUGGCGGCCGCCACUAAAACUGGAUCGGAAACGAUCCAGUAAUUUCGAGUGAUGUUCGUUAGGACCGGGCCAUGCUACC : apparent KD of K4 kissing-loop reporter at minimum 300 nM?
Condition not met

Evaluate AAAAUAAGCCAGUGAUGUUGGUGUCCAGAUACCAGCGACGAAAGUCGCCCUUGGCAGCUGUGGACGUACAAAAUAAGUACGUCCU : apparent KD of K4 kissing-loop reporter at minimum 300 nM?
Condition met

Evaluate AGGCACGAGCAAGGAUAUCGAGUAGAGUGAUGUUCUGCCUGGGUUGGCCCGUAAGGGCCUUCCCAGCGAGAAGGUGCUCGUGCCU [#2 Same State - FMN A Attempt #10 (HarryS)] : apparent KD of K4 kissing-loop reporter at minimum 300 nM?
Condition met

Evaluate AAUAAAAUCACGGCCGCCACUGAUUAUUUUAUUAGGAGUGAUGUUCCUAUGACAGUAUGCCUUAACAGGACCGGGUGAAUAUUUA [#19 K4 Tryptophan B Exclusion] : apparent KD of K4 kissing-loop reporter at minimum 300 nM?
Condition not met

Evaluate GGGAUGAUGUCGGCCGCCACUGACUGUGUCCAGUGAUGUUGGGAGUGUACGGAAGUUCCAUAUAUCAGGACCGGGACCUCGCUCC [theeternabot_sameState_KL_Trp_B_44] : apparent KD of K4 kissing-loop reporter at minimum 300 nM?
Condition met
